Sourced from PubChem BioAssay (EPA / NIEHS)

- Read-out: UDP glucuronosyltransferase (UGT1A6), UGT1A6 (gene 54578)
- ASSAY COMMENT: LTEA_HepaRG_UGT1A6: Life Technologies and Expression Analysis (LTEA) Assay for UDP glucuronosyltransferase (UGT1A6) using HepaRG (AID 2283539)
- CONDITION NOTES: mRNA level, 48 h; actives raise or lower the signal
Activity calls are given as the source filed them. Rule for the calls: active = hit-call score of the fitted dose curve at least 0.9, where 1 is the maximum; inactive = score below 0.9.
Outcomes: yes (1) for active, no (0) for inactive

| STRUCTURE NOTATION | CATEGORY |
| --- | --- |
| CCCCOCCOCCO | no (0) |
| COC(=O)c1ccc(C(=O)OC)cc1 | no (0) |
| C[C@]12CC[C@@H]3c4ccc(O)cc4CC[C@H]3[C@@H]1CC[C@@H]2O | no (0) |
| C=C(C)C(N)=O | no (0) |
| O=C(c1ccc(OCCN2CCCCC2)cc1)c1c(-c2ccc(O)cc2)sc2cc(O)ccc12 | yes (1) |
